src = patent US20150133493A1

# target system: γ-secretase (Homo sapiens, UniProt P49768)
# Construct: endogenous in cells
# assay comment: In vitro γ-secretase activity assay, Aβ42 production (ECL)
# Format: biochemical
# run conditions: in vitro inhibition of γ-secretase activity that generates Aβ42; 2.5 hr at 37° C., ECL detection
# Method: FIG. 2. In vitro characterization of coumarin-dimer allosteric GSIs against various γ-secretase cleavage products. […] The IC50 values were calculated from the dose response curves using a non-linear regression analysis in Prism software. […] Ruthenylated antibodies that detected the -40, -42, or -38 cleavage site were incorporated to detect proteolysis indicative of γ-secretase activity. […] Electrochemiluminescence was quantified on an Analyzer (BioVeris). […]
Please use t for IC50 under 2 µM and f for everything else, ties included.

{"columns": ["molecule", "class name"],
 "data": [
  ["Cc1coc(=O)c(C(c2cc(F)c(F)c(F)c2)c2c(O)c(C)coc2=O)c1O [compound 668]", "t"],
  ["O=c1oc2ccccc2c(O)c1C(c1cccc(C(F)(F)F)c1)c1c(O)c2ccccc2oc1=O [Compound 209]", "t"],
  ["O=c1oc2ccccc2c(O)c1Cc1cc(F)c(F)c(F)c1 [compound 476]", "f"],
  ["O=c1oc2ccccc2c(O)c1C(c1ccc(I)cc1)c1c(O)c2ccccc2oc1=O [compound 731]", "t"],
  ["O=c1oc2ccccc2c(O)c1C(c1cc(F)cc(F)c1)c1c(O)c2ccccc2oc1=O [Compound 61]", "t"],
  ["O=c1[nH]c2ccccc2c(O)c1C(c1cc(F)c(F)c(F)c1)c1c(O)c2ccccc2[nH]c1=O [Compound 45]", "f"],
  ["Nc1ccc2c(c1)Oc1c(c(=O)oc3ccccc13)C2c1c(O)c2ccccc2oc1=O (centres unmarked) [Compound 372]", "f"],
  ["O=c1oc2ccccc2c(O)c1C(c1ccc(Cl)cc1)c1c(O)c2ccccc2oc1=O [compound 729]", "t"]
]}
